These data points were gathered from ChEMBL document CHEMBL5724914.

- TEST_SUMMARY: The drug is tested on WLS-082 corresponding to human gut metagenome with ENA study accession number: PRJEB37062 and ENA sample accession number: ERS12561751 for biotransformation under anaerobic condition. The drug concentrations were measured over 9 timepoints collected between 0 and 24 hours of incubation by liquid-chromatography-coupled mass spectrometry (LC–MS); also: call rule not given here
- SETTINGS: 2 µM
PROPERTY_NAME: Bacterial Biotransformation

MOLECULE: CN(C)CCc1c[nH]c2ccc(CS(=O)(=O)N3CCCC3)cc12
Bacterial Biotransformation: Compound NOT metabolized
//
MOLECULE: CC(=O)OCC(=O)[C@@]1(OC(C)=O)[C@@H](C)C[C@H]2[C@@H]3C[C@H](F)C4=CC(=O)C=C[C@]4(C)[C@@]3(F)[C@@H](O)C[C@@]21C [DIFLORASONE DIACETATE]
Bacterial Biotransformation: Compound metabolized
//
MOLECULE: C[C@]12C=CC(=O)C=C1CC[C@@H]1[C@@H]2C(=O)C[C@@]2(C)[C@H]1CC[C@]2(O)C(=O)CO
Bacterial Biotransformation: Compound metabolized
//
MOLECULE: CC(CCc1ccccc1)NCC(O)c1ccc(O)c(C(N)=O)c1 (stereo unspecified)
Bacterial Biotransformation: Compound NOT metabolized
//
MOLECULE: CN[C@H]1CC[C@@H](c2ccc(Cl)c(Cl)c2)c2ccccc21
Bacterial Biotransformation: Compound metabolized
//
MOLECULE: O=C(O)CCC(=O)O.O=C(O[C@H]1CN2CCC1CC2)N1CCc2ccccc2[C@@H]1c1ccccc1 [SOLIFENACIN SUCCINATE]
Bacterial Biotransformation: Compound metabolized

Per the record, COc1ccc(C(CN(C)C)C2(O)CCCCC2)cc1 (stereo unspecified) has Bacterial Biotransformation of Compound NOT metabolized

For this molecule ( CC(=O)OCC(=O)NCCCOc1cccc(CN2CCCCC2)c1 [ROXATIDINE ACETATE] ), measured Bacterial Biotransformation is Compound metabolized

###

- SETTINGS: human gut metagenome, 24 h, 2 µM
PROPERTY_NAME: Bacterial Biotransformation

Below: 7 molecules and their reported Bacterial Biotransformation.
MOLECULE: CN1CCC(OC(c2ccccc2)c2ccccc2)CC1
PROPERTY_NAME: Bacterial Biotransformation
REPORTED_RESULT: Compound NOT metabolized

MOLECULE: COc1ccc(C(CN(C)C)C2(O)CCCCC2)cc1 (stereo not drawn) [VENLAFAXINE]
PROPERTY_NAME: Bacterial Biotransformation
REPORTED_RESULT: Compound NOT metabolized

MOLECULE: CCN(C(C)=O)c1cccc(-c2ccnc3c(C#N)cnn23)c1 [ZALEPLON]
PROPERTY_NAME: Bacterial Biotransformation
REPORTED_RESULT: Compound metabolized

MOLECULE: C[N+]12CCC(CC1)C(OC(=O)C(O)(c1ccccc1)c1ccccc1)C2.[Br-] (stereo not drawn) [CLIDINIUM BROMIDE]
PROPERTY_NAME: Bacterial Biotransformation
REPORTED_RESULT: Compound NOT metabolized

MOLECULE: CC1Cc2ccccc2N1NC(=O)c1ccc(Cl)c(S(N)(=O)=O)c1 (stereo not drawn) [INDAPAMIDE]
PROPERTY_NAME: Bacterial Biotransformation
REPORTED_RESULT: Compound NOT metabolized

MOLECULE: CN1[C@@H]2CC[C@H]1C[C@@H](OC(=O)c1c[nH]c3ccccc13)C2 [TROPISETRON]
PROPERTY_NAME: Bacterial Biotransformation
REPORTED_RESULT: Compound NOT metabolized

MOLECULE: CCc1oc2ccccc2c1C(=O)c1cc(Br)c(O)c(Br)c1 [BENZBROMARONE]
PROPERTY_NAME: Bacterial Biotransformation
REPORTED_RESULT: Compound metabolized

Shift focus to the following entry.
So, N#Cc1ccc2c(c1)N(CCCN1CCC(O)CC1)c1ccccc1S2 [PERICIAZINE] ? Its Bacterial Biotransformation was Compound NOT metabolized
